tested on: SK-MEL-5 melanoma; assay: NCI tumour cell line growth inhibition, 48 h
measurementName: TGI

Ask: Annotate the compound `COc1ccc2c(-c3cc4ccccc4o3)cc(=O)oc2c1` with its measured TGI.
Result: > 100 µM

Ask: Input CCOC(=O)C1=C(C)NC(=O)N([N+](=O)[O-])C1c1ccccc1C(F)(F)F (stereo unspecified) , output reported TGI.
Result: > 100 µM

Ask: Identify TGI associated with the compound CC/C=C\C/C=C\C1CC(=O)NCCCNCCCCN1 (stereo unspecified)
Result: > 100 µM

Ask: Tell me TGI reported for `C=CCOc1c(Br)cc(Br)cc1Br`
Result: > 100 µM

Ask: Report TGI for `CNC(=O)c1ccc(-c2cnc3ncc(Cc4ccc5ncccc5c4)n3n2)cc1F`
Result: > 100 µM

Ask: Quick one: give measured TGI for `NNC(=O)c1cccc2c1Oc1ccccc1S2`
Result: > 100 µM

* * *

test system: HOP-92 NSCLC; experiment: NCI tumour cell line growth inhibition, 48 h; in the data active = GI50 below about 0.43 µM; inactive = the rest
// allowed return values: label 1 = active, label 0 = inactive

Ask: Short answer needed: outcome of this test for `CNc1nc(NC2CCCC2)nc(Sc2ccc(OC)cc2)n1` ?
Result: label 0

Ask: // param item: `Cc1ccc(-c2nc(C(Cl)Cl)n3nc(-c4ccccc4)cc3n2)cc1` ; yields the recorded call
Result: label 1

Ask: Dear all, I need the recorded test outcome for `CCCCCCNc1nc(NCCCCCC)c2[nH]c(NCCCCCC)nc2n1` , thank you.
Result: label 0

Ask: Recorded test outcome, item `COC(=O)c1c(O)ccc2[nH]c(C)c(C#N)c12`
Result: label 0

Ask: Assay outcome for `C=C1C(=O)O[C@H]2[C@H]1CC/C(COC(=O)c1cc3cc(OC)ccc3[nH]1)=C\CC[C@@]1(C)O[C@@H]21` : what was it?
Result: label 0

Ask: Please indicate how the test categorized `CS(=O)(=O)Nc1ccc(-c2ccc3c(NC(=O)C4CC4)n[nH]c3c2)cc1` .
Result: label 0

Ask: Please let me know the test result on file for `C[C@H]1CCC/C=C/[C@@H]2C[C@H](N)C[C@H]2[C@H](O)/C=C/C(=O)O1` .
Result: label 0

Ask: Recorded call for `C=CC(=O)N1CCN(c2ncnc3c(F)c(-c4c(O)cccc4F)c(Cl)cc23)CC1` ?
Result: label 0

Ask: What did this assay record as the result for `NCCN1CCN(c2nccc(-c3ccc4ccccc4c3)n2)CC1` ?
Result: label 0

Ask: Just curious, what result did `Nc1nc(Nc2ccc(OCc3cccc(F)c3)cc2)c2c(n1)[nH]c1ccc(O)cc12` get here?
Result: label 0

Ask: # lookup: test call for `Cc1noc(C)c1-c1ccc2[nH]c(=O)n3c2c1OC[C@@H]3c1ccccn1`
Result: label 1

Ask: Kindly provide the recorded test outcome for the following compound: COC(=O)C(Cc1ccccc1)N/C=C\C(=O)c1ccc(Cl)cc1 (stereo not drawn)
Result: label 0

Ask: Would you mind telling me which call this test gave `O=C(Nc1cc(-c2ccccc2)[nH]n1)c1ccc(Cl)cc1` ?
Result: label 0

* * *

system: UACC-62 melanoma; experiment: NCI tumour cell line growth inhibition, 48 h
Assignment: determine reported TGI for the given molecules.

Ask: Return TGI (reported value) for this molecule: `Clc1cc(Cl)c2c(Cl)cc(Cl)c3c2c1N=S=N3`
Result: > 100 µM

Ask: Give TGI for `Cc1noc(C)c1-c1ccc2[nH]c(=O)n3c2c1OC[C@@H]3c1ccccn1`
Result: > 100 µM

Ask: Return TGI (reported value) for this molecule: `O=C1c2ccccc2-c2cccc3ccc(Cc4ccccc4)c1c23`
Result: > 100 µM
